STUDY_SYSTEM: pKPTPλ, truncated ChPTPλ containing the intracellular domain (Gallus gallus, UniProt Q91976)
Construct: HindIII/EcoRI fragment in pKKUC12, E. coli DHB4 extract
Sequence (Q91976 541-1237): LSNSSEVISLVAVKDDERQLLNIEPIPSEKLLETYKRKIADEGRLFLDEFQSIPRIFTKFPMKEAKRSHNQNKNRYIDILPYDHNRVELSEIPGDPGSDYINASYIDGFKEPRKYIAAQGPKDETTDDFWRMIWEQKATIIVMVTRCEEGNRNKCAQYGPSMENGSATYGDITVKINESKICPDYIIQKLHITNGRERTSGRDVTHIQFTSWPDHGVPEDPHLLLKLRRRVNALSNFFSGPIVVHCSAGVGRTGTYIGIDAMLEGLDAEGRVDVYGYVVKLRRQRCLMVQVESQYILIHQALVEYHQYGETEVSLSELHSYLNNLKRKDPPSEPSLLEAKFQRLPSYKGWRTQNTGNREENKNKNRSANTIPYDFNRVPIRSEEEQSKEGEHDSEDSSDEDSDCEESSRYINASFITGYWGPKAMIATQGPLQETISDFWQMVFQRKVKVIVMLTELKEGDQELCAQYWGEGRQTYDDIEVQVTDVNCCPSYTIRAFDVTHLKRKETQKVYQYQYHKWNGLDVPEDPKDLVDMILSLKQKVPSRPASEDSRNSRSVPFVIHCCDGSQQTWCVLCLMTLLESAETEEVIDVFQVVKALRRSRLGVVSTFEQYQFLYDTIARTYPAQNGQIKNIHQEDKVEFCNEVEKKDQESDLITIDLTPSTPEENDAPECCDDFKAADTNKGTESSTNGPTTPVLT
MEASUREMENT_NOTES: PTP assay of bacterial extract expressing pKPTPλ
Format: biochemical, chicken
TEST_PARAMETERS: 10 mM; buffer 20 mM Hepes (pH 7.4), 10 mM DTT, 5 mM EDTA
MEASURED_ENDPOINT: pKPTPλ (% activity) (%)
State just the number; it will be interpreted in %.

As a guide, the following entries are already answered.
# SMILES, pKPTPλ (% activity) (%)
measured = [
    ("[Cl][Mn][Cl]", 51),
    ("[Cl-].[Cl-].[Zn+2]", 1),
    ("[Ca+2].[Cl-].[Cl-]", 90),
]

Consider the record given below.
Value of pKPTPλ (% activity) reported for the compound "[Cl-].[Cl-].[Mg+2]" is 80

Reference source for all entries: patent US5693488A
